test system: 786-0 renal; assay: NCI tumour cell line growth inhibition, 48 h
// values below are reported TGI

C=CCN1C(=O)/C(=C/c2ccc(OC)cc2)N=C1SC/C=C/C; > 100 µM
C=C(C)C(=O)O[C@H]1CC(=C)[C@@H]2C[C@H](O)[C@](O)(CCl)[C@@H]2[C@H]2OC(=O)C(=C)[C@@H]21; 3.88 µM
CN(C)Nc1cc(=O)[nH]c(=O)[nH]1; > 100 µM

Returns the measured TGI for the input molecule. Input: O=C1c2ccccc2C(O)(O)C1(O)C1(O)C(=O)c2ccccc2C1(O)O (stereo unspecified) > 100 µM

Same thing, different molecule: CC(C)N(Cc1ccccc1)c1c(S)ssc1=S > 100 µM
